Each record here notes measured DC50.
Biological target: PTPN2 (B16F10.4 cells) (Mus musculus)
Construct: HiBiT; host or cells: B16F10.4
Sequence (Q06180 whole entry): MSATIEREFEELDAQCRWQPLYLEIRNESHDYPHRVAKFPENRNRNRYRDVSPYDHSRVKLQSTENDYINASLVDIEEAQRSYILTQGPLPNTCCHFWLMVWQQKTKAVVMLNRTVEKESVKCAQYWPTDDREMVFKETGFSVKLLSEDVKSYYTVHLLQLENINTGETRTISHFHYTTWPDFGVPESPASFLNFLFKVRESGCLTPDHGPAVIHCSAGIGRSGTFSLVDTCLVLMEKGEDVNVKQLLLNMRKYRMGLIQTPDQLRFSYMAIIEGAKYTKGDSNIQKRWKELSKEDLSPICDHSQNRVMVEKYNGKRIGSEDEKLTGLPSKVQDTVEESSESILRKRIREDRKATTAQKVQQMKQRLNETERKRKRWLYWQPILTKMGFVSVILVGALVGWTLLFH
Assay: HiBiT Degradation B16F10.4 PTPN2
Type: cell-based
Conditions: 24.0 hours

The reported value for CC1(C)C[C@@H](Nc2cccc(-c3sc(C(=O)O)c(OCC(=O)O)c3Cl)c2)CCN1S(=O)(=O)Cc1cccc(NC(=O)C2CCN(C(=O)CNc3cccc4c3CN(C3CCC(=O)NC3=O)C4=O)CC2)c1 (some centres unmarked) in terms of DC50 is 200 to 1000 nM

The reported value for Cn1c(=O)n(C2CCC(=O)NC2=O)c2ccc(N3CC(OCC(=O)Nc4cccc(CS(=O)(=O)N5CC[C@H](Nc6cccc(-c7sc(C(=O)O)c(OCC(=O)O)c7Cl)c6)CC5(C)C)c4)C3)cc21 (some centres unmarked) in terms of DC50 is 200 to 1000 nM

The reported value for CC(C)(c1cccc(NC(=O)CCCCCCNC(=O)CNc2cccc3c2CN(C2CCC(=O)NC2=O)C3=O)c1)S(=O)(=O)N1CCC(Nc2cccc(-c3sc(C(=O)O)c(OCC(=O)O)c3Cl)c2)CC1 (centres unmarked) in terms of DC50 is ≥ 1000 nM

The reported value for Cn1c(=O)n(C2CCC(=O)NC2=O)c2ccc(C3CCN(C(=O)Nc4cccc(CS(=O)(=O)N5CC[C@H](Nc6cccc(-c7sc(C(=O)O)c(OCC(=O)O)c7Cl)c6)CC5(C)C)c4F)CC3)cc21 (some centres unmarked) in terms of DC50 is < 50 nM

The reported value for Cn1c(=O)n(C2CCC(=O)NC2=O)c2ccc(N3CCC4(CC3)CN(C(=O)Nc3cccc(CS(=O)(=O)N5CCC(Nc6cccc(-c7sc(C(=O)O)c(OCC(=O)O)c7Cl)c6)CC5)c3)C4)cc21 (centres unmarked) in terms of DC50 is 50 to 200 nM
